assay: NCI Yeast Anticancer Drug Screen. Data for the mlh1 strain (AID 171);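 further: 0% = growth of vehicle-treated control cultures of the same strain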; conditions: S. cerevisiae mlh1 strain growth inhibition; at 3.7 µM; stronger effect = higher value
About 79,000 compounds went through this panel and 15% of them were active in at least one assay; those are over-represented in the sample as a whole.
Measurement Label: growth inhibition (%)

CC(C)=CC(=O)O[C@@H]1CC(C)(C)CC2C3=CCC4[C@]56CC[C@](O)(OC5)C(C)(C)C6CC[C@@]4(C)C3(C)CC[C@]21C(=O)O (stereo not given in full) | 21
CCOC(=O)c1cc(-c2ccc(Cl)cc2)c([N+](=O)[O-])n1C | 36
O=C(N=Nc1ccccc1Cl)NNc1ccccc1Cl | -4
CC(=O)OC1CCC2(C)C(=CCC3C4CCC5(OC6CC(C)CN(C(C)=O)C6C5C)C(C)=C4C(=O)C32)C1 (stereo not given) | -21
O=C1C=CC(=C(c2ccccc2)c2ccccc2)c2ccccc21 | 0
CCNc1nnc(CSc2nc(-c3ccccc3)c(-c3ccccc3)[nH]2)s1 | 5
C[C@@H]1C[C@H]2[C@@H]3CCC4=CC(=O)C=C[C@]4(C)[C@@]3(Cl)[C@@H](Cl)C[C@]2(C)[C@@]1(O)C(=O)COP(=O)(O)O | 3
NCCNc1ccc(NCCN)c2c1C(=O)c1c(O)ccc(O)c1C2=O | 20
c1ccc(-c2nc3cccnc3s2)cc1 | 13
O=C1C2C=CC1C1C(=O)OC(=O)C21 (stereo not given) | -53
CCCN(CCC)CC(O)c1cc(-c2ccc(Cl)cc2)nc2c(C)c(Cl)ccc12 (stereo not given) | -2
CC1(Cl)CC(O)C2(CC1Br)C1(C)OC1C1OC1(Br)C2(C)C (stereo not given) | -22
O=Nc1cccnc1N=O | 21
CC(C)/C(Cl)=N\OC(=O)Nc1ccc(F)cc1 | 2
CCC(C(=O)O)C1=C(c2ccccc2)CCc2ccccc21 (stereo not given) | 20
CC(C(=O)N1C(=O)N(C(=O)[C@H](C)C(O)c2ccccc2)[C@H](c2ccccc2)[C@H]1c1ccccc1)[C@@H](O)c1ccccc1 (stereo not given in full) | -4
O=[N+]([O-])c1ccc2c(c1)C(N1CCN(CCO)CC1)Cc1ccc(F)cc1S2 (stereo not given) | -3
C/C(=N\NC(=S)N1CCCCC1)c1cccc(C)n1 | 92
Cc1nc(-c2ccccc2)c(-c2ccccc2)s1 | 16
CN(CCc1ccccn1)c1ccc2c(c1)Cc1ccccc1-2 | 3

====

Measured growth inhibition, listed per entry.
assay: NCI Yeast Anticancer Drug Screen. Data for the sgs1 strain (AID 173);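 further: 0% = growth of vehicle-only control cultures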; details: S. cerevisiae sgs1 mutant, at 100.0 µM, stronger effect = higher value
This is part of a sample that, as a whole, favours compounds with a hit. Of some 79,000 tested, about 15% had one in any assay.
Measurement Label: growth inhibition (%)

CCCCCCCCCCC(=O)Cl | 90
CC1C(NNc2ccccc2)Oc2cc3c(cc2C1c1ccccc1O)OCO3 (stereo unspecified) | 95
CN=C(N)N/N=C/c1ccc2c(c1)Cc1ccccc1-2 | 93
CC(C)C1=CC2=C[C@H](O)[C@H]3C(C)(C)CCC[C@]3(C)C2=C(O)C1=O | 95
O=C(Nc1ccccc1)OCCc1ccc(Cl)c(Cl)c1 | 47
COc1cccc2nc3ccccc3nc12 | 88

====

Measured growth inhibition, listed per entry.
experiment: NCI Yeast Anticancer Drug Screen. Data for the rad14 strain (AID 159);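 further: 0% = growth of vehicle-treated control cultures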; conditions: S. cerevisiae rad14 strain growth inhibition; at 11.0 µM; stronger effect = higher value
About 79,000 compounds went through this panel and 15% of them were active in at least one assay; those are over-represented in the sample as a whole.
Measurement Label: growth inhibition (%)

CSC(=S)N/N=C(\C)c1cccc(C)n1 | -5
CC(C)(Br)C(=O)/C=C/c1ccc(Cl)c(Cl)c1 | 1
c1ccc2c(c1)C(=NCCCN1CCCCCC1)c1cccn1-2 | -2
COC1=CC(=O)C(C2(OC(C)C)OC(=O)C(Cl)=C2Cl)=CC1=O (stereo unspecified) | 99
C#CCCCc1ccccc1 | -31
O=C(/C=C/c1cccc(Br)c1)c1cccs1 | 81
O=C1C2C(C(=O)N1c1ccc(OCc3ccccc3)cc1)C1c3ccccc3C2C2CCCCN21 (stereo unspecified) | 4
CCCCCCCCC/C=C/C=C/C(=O)NCC(=O)NC1C(O)C(O)C(Nc2ncnc3nc[nH]c23)OC1C(O)CO (stereo unspecified) | -8
CCCCCCCCCCCCCC[N+](C)(CC(=O)[O-])Cc1ccccc1 (stereo unspecified) | 100
CCOC(=O)C(NC(=O)c1ccccc1)(N1CCN(c2cc3c(cc2F)c(=O)c(C(=O)O)cn3C2CC2)CC1)C(F)(F)F (stereo unspecified) | 4
BrCC[P+](c1ccccc1)(c1ccccc1)c1ccccc1 | -16
